# experimentalProtocol: Cytotoxicity against human Ava5 cells
# Format: cell-based
The entries below are paired with their reported CC50.

chemSmiles: NC(=S)Nc1cccc(OCCCCCc2ccccc2)c1
unitSpec: µM
comparator: =
CC50: 22

chemSmiles: S=C(Nc1ccccc1)Nc1cccc(OCCCCCc2ccccc2)c1
unitSpec: µM
comparator: =
CC50: 35

chemSmiles: NC(=S)Nc1cccc(OCCCCCOc2ccc(C(=O)O)cc2)c1
unitSpec: µM
comparator: >
CC50: 50

chemSmiles: CC(C)(CCOc1ccccc1)CCOc1cccc(NC(N)=S)c1
unitSpec: µM
comparator: =
CC50: 13

* * *

Below, each entry is listed alongside its reported CC50.
# experimentalProtocol: Cytotoxicity against human Ava5 cells
# Assay type: cell-based

chemSmiles: NC(=S)Nc1cccc(OCCCCCOc2ccc(N3CCCCC3)cc2)c1
CC50: 12 µM
--
chemSmiles: NC(=S)Nc1cccc(OCCCCCOc2ccc(-c3cccs3)cc2)c1
CC50: > 50 µM
--
chemSmiles: CCNC(=S)Nc1cccc(OCCCCCc2ccccc2)c1
CC50: > 50 µM
--
chemSmiles: NC(=S)Nc1cccc(OCCCCCOc2ccccc2)c1
CC50: > 50 µM
--
chemSmiles: NC(=S)Nc1cccc(OCCCCCOc2ccc(-c3ccccc3)cc2)c1
CC50: > 50 µM
--
chemSmiles: NC(=S)Nc1cccc(OCCCCCOc2cccc3[nH]ccc23)c1
CC50: > 50 µM
